# study-target: Aromatase (Homo sapiens)
# Sequence (P11511 whole entry): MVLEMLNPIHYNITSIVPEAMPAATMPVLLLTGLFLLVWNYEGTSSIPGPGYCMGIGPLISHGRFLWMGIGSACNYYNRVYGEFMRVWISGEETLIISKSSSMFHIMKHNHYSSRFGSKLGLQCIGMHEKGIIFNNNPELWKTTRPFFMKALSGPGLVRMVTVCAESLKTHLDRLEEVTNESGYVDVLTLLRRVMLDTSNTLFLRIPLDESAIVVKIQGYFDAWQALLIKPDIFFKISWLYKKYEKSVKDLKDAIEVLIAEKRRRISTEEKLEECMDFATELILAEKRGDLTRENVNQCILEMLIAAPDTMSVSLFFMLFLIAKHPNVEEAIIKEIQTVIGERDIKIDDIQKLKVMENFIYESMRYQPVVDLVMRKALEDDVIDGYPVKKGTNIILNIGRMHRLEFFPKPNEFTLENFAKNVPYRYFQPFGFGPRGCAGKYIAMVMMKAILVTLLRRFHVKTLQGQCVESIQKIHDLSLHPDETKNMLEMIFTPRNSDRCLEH
# test-description: Inhibition of recombinant human aromatase expressed in baculovirus infected insect cells using O-benzyl fluorescein benzyl ester as substrate in presence of NADPH generating system by fluorescence based analysis
Mark 1 for IC50 under 3 µM, -1 if at or over.

Some entries whose results are on file:
COc1ccc(S(=O)(=O)NCc2cccc(CNS(=O)(=O)c3ccc(OC)cc3)c2)cc1 -1
Cc1cc(C)c(C)c(S(=O)(=O)NCc2ccc(CNS(=O)(=O)c3c(C)c(C)cc(C)c3C)cc2)c1C -1
Cc1ccc(S(=O)(=O)NCc2cccc(CNS(=O)(=O)c3ccc(C)cc3)c2)cc1 1
Cc1cc(C)c(C)c(S(=O)(=O)NCc2cccc(CNS(=O)(=O)c3c(C)c(C)cc(C)c3C)c2)c1C -1
Nc1cccc(S(=O)(=O)NCc2cccc(CNS(=O)(=O)c3cccc(N)c3)c2)c1 -1

We now examine a further compound.
is_below(IC50, 3 µM) for O=S(=O)(NCc1cccc(CNS(=O)(=O)c2ccc(Cl)cc2)c1)c1ccc(Cl)cc1 ?
1

###

Each item that follows carries a reported Ratio IC50.
# Species on record: Homo sapiens
# test-description: Selectivity index, ratio of IC50 for human MRC5 cells by MTT assay to IC50 for human recombinant aromatase expressed in baculovirus infected insect cells

These solved cases illustrate the format of a correct answer.
O=S(=O)(NCc1cccc(CNS(=O)(=O)c2ccc3ccccc3c2)c1)c1ccc2ccccc2c1 > 461
O=[N+]([O-])c1ccccc1S(=O)(=O)NCc1cccc(CNS(=O)(=O)c2ccccc2[N+](=O)[O-])c1 > 26.9
O=[N+]([O-])c1cccc(S(=O)(=O)NCc2cccc(CNS(=O)(=O)c3cccc([N+](=O)[O-])c3)c2)c1 > 35.9

The reported value for O=S(=O)(Nc1cccc(NS(=O)(=O)c2ccc(Cl)cc2)c1)c1ccc(Cl)cc1 in terms of Ratio IC50 is 80.9

The reported value for Cc1cc(C)c(C)c(S(=O)(=O)NCc2cccc(CNS(=O)(=O)c3c(C)c(C)cc(C)c3C)c2)c1C in terms of Ratio IC50 is 25.3

The reported value for N#Cc1ccc(S(=O)(=O)NCc2cccc(CNS(=O)(=O)c3ccc(C#N)cc3)c2)cc1 in terms of Ratio IC50 is > 670

The reported value for CC(=O)c1ccc(S(=O)(=O)NCc2cccc(CNS(=O)(=O)c3ccc(C(C)=O)cc3)c2)cc1 in terms of Ratio IC50 is > 357

The reported value for COc1ccc(S(=O)(=O)NCc2cccc(CNS(=O)(=O)c3ccc(OC)cc3)c2)cc1 in terms of Ratio IC50 is > 9.04

###

# study-target: UniProtKB P11511
# test-description: Inhibition of recombinant human aromatase expressed in baculovirus infected insect cells using O-benzyl fluorescein benzyl ester as substrate in presence of NADPH generating system by fluorescence based analysis
pIC50: −log10 of the molar value.
If the reported pIC50 equals or exceeds 6, assign Fulfilled. If not, assign Not fulfilled.

I'd appreciate it if you could say whether O=S(=O)(NCc1cccc(CNS(=O)(=O)c2ccc(C(F)(F)F)cc2)c1)c1ccc(C(F)(F)F)cc1 has pIC50 at least equal to 6.
Fulfilled

I'd appreciate it if you could say whether O=S(=O)(NCc1cccc(CNS(=O)(=O)c2ccc(F)cc2)c1)c1ccc(F)cc1 has pIC50 at least equal to 6.
Not fulfilled

I'd appreciate it if you could say whether O=S(=O)(NCc1cccc(CNS(=O)(=O)c2ccc3ccccc3c2)c1)c1ccc2ccccc2c1 has pIC50 at least equal to 6.
Fulfilled

I'd appreciate it if you could say whether O=[N+]([O-])c1cccc(S(=O)(=O)NCc2cccc(CNS(=O)(=O)c3cccc([N+](=O)[O-])c3)c2)c1 has pIC50 at least equal to 6.
Not fulfilled

I'd appreciate it if you could say whether COc1ccc(S(=O)(=O)Nc2cccc(NS(=O)(=O)c3ccc(OC)cc3)c2)cc1 has pIC50 at least equal to 6.
Fulfilled

Source of measurements: ChEMBL document CHEMBL4359882
